# test.system: CBP (Homo sapiens (Human), UniProt Q92793)
# Sequence (Q92793 1081-1197): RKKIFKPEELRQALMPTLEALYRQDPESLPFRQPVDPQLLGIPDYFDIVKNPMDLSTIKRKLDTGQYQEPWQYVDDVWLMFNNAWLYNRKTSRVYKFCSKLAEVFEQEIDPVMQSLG
# experiment.notes: In vitro CBP inhibition (AlphaScreen, biotinylated H4-tetraacetyl peptide)
# Type: binding
# conditions.used: Table 30; read-out: CRREBBP IC50
# Protocol: The CBP-inhibitory activity of the compounds described herein was determined by calculating the IC50. […] CBP binding and inhibition is assessed by monitoring the interaction of biotinylated H4-tetraacetyl peptide (AnaSpec, H4K5/8/12/16(Ac), biotin-labeled) with the target using the AlphaScreen technology (Perkin Elmer). […] The ability of the compounds disclosed herein to inhibit CBP activity was quantified and the respective IC50 value determined.
pIC50: −log10 of the molar value.
Listed here: items and their measured pIC50.

[
  {
    "structure": "Cn1cc(-c2cnn(Cc3ccccc3)c2)c(N2CC[C@@H](C(=O)O)C2)cc1=O",
    "recorded.result": "> 6.30"
  },
  {
    "structure": "Cc1cc(-c2nc(NS(C)(=O)=O)ncc2Oc2ccc(F)cc2F)cn(C)c1=O",
    "recorded.result": "< 5.30"
  },
  {
    "structure": "Cc1cc(-c2cc(=O)n(C)cc2-c2cnn(Cc3ccccc3)c2)[nH]n1",
    "recorded.result": "> 6.30"
  }
]

Please look at the following compound next.
Memo: `Cn1cc(-c2cnn(-c3ccccc3C(=O)O)c2)c(-c2ccccc2)cc1=O` , reported pIC50: > 6.30

// data source = patent US10617680B2
